# System: Mycobacterium tuberculosis
# Assay notes: Antitubercular activity against Mycobacterium tuberculosis H37Rv ATCC27294 assessed as complete cessation of growth
# Assay type: functional
# Particulars: H37Rv ATCC 27294
Value kind: MIC

Item: `O=C(Nc1cc(C(F)(F)F)cc(C(F)(F)F)c1)c1cccc(O)c1O` | MIC: > 50 µM

Item: `O=C(Nc1cc(C(F)(F)F)cc(C(F)(F)F)c1)Nc1cc(Cl)ccc1O` | MIC: ≥ 50 µM

Item: `O=C(Nc1cc(C(F)(F)F)cc(C(F)(F)F)c1)c1ccccc1Cl` | MIC: > 50 µM

Item: `O=C(Nc1ccc(Cl)c(C(F)(F)F)c1)c1cc(Cl)ccc1O` | MIC: 1.6 µM

Item: `O=C(Nc1ccc(C(F)(F)F)cc1Cl)c1cc(Cl)ccc1O` | MIC: 0.8 µM

Item: `COc1ccc(O)c(C(=O)Nc2cc(C(F)(F)F)cc(C(F)(F)F)c2)c1` | MIC: 6.3 µM

Item: `COc1ccc(C(F)(F)F)c(NC(=O)c2cc(Cl)ccc2O)c1` | MIC: 6.3 µM

Item: `O=C(Nc1ccccc1)c1cccc(NC(=O)c2cc(Cl)ccc2O)c1` | MIC: > 50 µM

Item: `N#Cc1cccc(NC(=O)c2cc(Cl)ccc2O)c1` | MIC: 25 µM

Item: `O=C(Nc1ccc(S(=O)(=O)Nc2ccccc2)cc1)c1cc(Cl)ccc1O` | MIC: > 50 µM

Item: `O=C(Nc1cc(Br)ccc1C(F)(F)F)c1cc(Cl)ccc1O` | MIC: 1.6 µM

====

# Assay notes: Cytotoxicity against mouse macrophage cell line J774.1 (ATCC TIB-67) for 3 days by Alamar Blue
# Type: cell-based
# Particulars: 72 h
Consider the reported IC50 of an entry and match it to a band in low range (below 5 µM), mid range (5 µM to below 8 µM), high range (8 µM or more)

Q: Form: Item = `O=C(O)c1cccc(NC(=O)c2cc(Cl)ccc2O)c1` ; Class = ?
Ans: high range

Q: Form: Item = `O=C(Nc1ccccc1)c1cc(Cl)ccc1O` ; Class = ?
Ans: high range

Q: Form: Item = `O=C(Nc1cc(C(F)(F)F)ccc1Br)c1cc(Cl)ccc1O` ; Class = ?
Ans: low range

Q: Form: Item = `CC(C)(C)c1cc(NC(=O)c2cc(Cl)ccc2O)cc(C(C)(C)C)c1` ; Class = ?
Ans: low range

Q: Form: Item = `O=C(Nc1cc(Br)ccc1C(F)(F)F)c1cc(Cl)ccc1O` ; Class = ?
Ans: mid range

Q: Form: Item = `O=C(Nc1cc(C(F)(F)F)cc(C(F)(F)F)c1)c1cc([N+](=O)[O-])ccc1O` ; Class = ?
Ans: high range

Q: Form: Item = `Cc1ccc(NC(=O)c2cc(Cl)ccc2O)cc1I` ; Class = ?
Ans: mid range

Q: Form: Item = `O=C(Nc1ccc(C(F)(F)F)cc1)c1cc(Cl)ccc1O` ; Class = ?
Ans: low range

Q: Form: Item = `O=C(NCc1cc(C(F)(F)F)cc(C(F)(F)F)c1)c1cc(Cl)ccc1O` ; Class = ?
Ans: high range

Q: Form: Item = `Cc1cc(NS(=O)(=O)c2ccc(NC(=O)c3cc(Cl)ccc3O)cc2)no1` ; Class = ?
Ans: high range

Q: Form: Item = `O=C(Nc1ccc(F)c(F)c1F)c1cc(Cl)ccc1O` ; Class = ?
Ans: mid range

Q: Form: Item = `O=C(Nc1ccc(F)c(Cl)c1)c1cc(Cl)ccc1O` ; Class = ?
Ans: low range

Q: Form: Item = `O=C(Nc1ccccc1)c1ccc(NC(=O)c2cc(Cl)ccc2O)cc1` ; Class = ?
Ans: high range

Q: Form: Item = `O=C(Nc1ccccc1S(=O)(=O)c1ccccc1)c1cc(Cl)ccc1O` ; Class = ?
Ans: high range

Q: Form: Item = `O=C(Nc1cccc(C(F)(F)F)c1)c1cc(F)ccc1O` ; Class = ?
Ans: mid range

Q: Form: Item = `Cc1c(C(F)(F)F)cc(NC(=O)c2cc(Cl)ccc2O)cc1C(F)(F)F` ; Class = ?
Ans: low range

Q: Form: Item = `O=C(Nc1cc(F)c(F)c(F)c1)c1cc(Cl)ccc1O` ; Class = ?
Ans: low range

Q: Form: Item = `O=C(Nc1cc(O)c(Cl)cc1Cl)c1cc(Cl)ccc1O` ; Class = ?
Ans: high range

Q: Form: Item = `O=C(Nc1cc(Cl)ccc1O)c1cc(C(F)(F)F)cc(C(F)(F)F)c1` ; Class = ?
Ans: high range

Q: Form: Item = `NC(=O)c1cccc(NC(=O)c2cc(Cl)ccc2O)c1` ; Class = ?
Ans: high range

Q: Form: Item = `O=C(Nc1cc(C(F)(F)F)cc(C(F)(F)F)c1)c1cc(-n2cccc2)ccc1O` ; Class = ?
Ans: low range

Q: Form: Item = `O=C(Nc1cc(Br)cc(C(F)(F)F)c1)c1cc(F)ccc1O` ; Class = ?
Ans: low range

Q: Form: Item = `O=C(Nc1ccc(F)cc1)c1cc(Cl)ccc1O` ; Class = ?
Ans: high range

Q: Form: Item = `O=C(Nc1ccc(OC(F)(F)F)cc1)c1cc(Cl)ccc1O` ; Class = ?
Ans: mid range

Q: Form: Item = `N#Cc1cccc(NC(=O)c2cc(Cl)ccc2O)c1` ; Class = ?
Ans: high range

Q: Form: Item = `O=C(Nc1cccc(Br)c1)c1cc(Cl)ccc1O` ; Class = ?
Ans: mid range

Q: Form: Item = `O=C(Nc1cc(C(F)(F)F)cc(C(F)(F)F)c1)c1cccc(O)c1O` ; Class = ?
Ans: low range

Q: Form: Item = `CC(C)(C)c1ccc(NC(=O)c2cc(Cl)ccc2O)cc1` ; Class = ?
Ans: high range

Q: Form: Item = `O=C(Nc1c(F)cccc1F)c1cc(Cl)ccc1O` ; Class = ?
Ans: high range

Q: Form: Item = `O=C(Nc1cc(F)c(F)cc1F)c1cc(Cl)ccc1O` ; Class = ?
Ans: mid range

Q: Form: Item = `O=C(Oc1cc(C(F)(F)F)cc(C(F)(F)F)c1)c1cc(Cl)ccc1O` ; Class = ?
Ans: high range

Q: Form: Item = `O=C(Nc1cccc(C(F)(F)F)c1F)c1cc(Cl)ccc1O` ; Class = ?
Ans: mid range

Q: Form: Item = `O=C(Nc1cccc(F)c1)c1cc(Cl)ccc1O` ; Class = ?
Ans: high range

Q: Form: Item = `COc1ccc(C(F)(F)F)c(NC(=O)c2cc(Cl)ccc2O)c1` ; Class = ?
Ans: low range

Q: Form: Item = `O=C(Nc1cc(F)c(Br)c(F)c1)c1cc(Cl)ccc1O` ; Class = ?
Ans: low range

Q: Form: Item = `O=C(Nc1ccc(F)cc1C(F)(F)F)c1cc(Cl)ccc1O` ; Class = ?
Ans: high range

Q: Form: Item = `NC(=O)c1ccc(NC(=O)c2cc(Cl)ccc2O)cc1` ; Class = ?
Ans: high range

Q: Form: Item = `O=C(Nc1ccccc1)c1cccc(NC(=O)c2cc(Cl)ccc2O)c1` ; Class = ?
Ans: high range

Q: Form: Item = `Cc1ccc(O)c(C(=O)Nc2cc(C(F)(F)F)cc(C(F)(F)F)c2)c1` ; Class = ?
Ans: mid range

Q: Form: Item = `CCOC(=O)c1cccc(NC(=O)c2cc(Cl)ccc2O)c1` ; Class = ?
Ans: high range

Q: Form: Item = `N#Cc1ccc(NC(=O)c2cc(Cl)ccc2O)cc1` ; Class = ?
Ans: high range

Q: Form: Item = `Nc1ccc(Cl)cc1C(=O)Nc1cc(C(F)(F)F)cc(C(F)(F)F)c1` ; Class = ?
Ans: high range

Q: Form: Item = `N#Cc1ccc(NC(=O)c2cc(Cl)ccc2O)cc1C(F)(F)F` ; Class = ?
Ans: mid range

Q: Form: Item = `COc1ccc(O)c(C(=O)Nc2cc(C(F)(F)F)cc(C(F)(F)F)c2)c1` ; Class = ?
Ans: mid range

Q: Form: Item = `O=C(Nc1cc(C(F)(F)F)ccc1F)c1cc(Cl)ccc1O` ; Class = ?
Ans: low range

====

Exercise: state measured MIC for each of the molecules provided.
# Tested on: Mycobacterium tuberculosis
# Assay notes: Antitubercular activity against Mycobacterium tuberculosis H37Rv ATCC27294 assessed as complete cessation of growth
# Format: functional
# Particulars: H37Rv ATCC 27294

Item: `O=C(Nc1cc(F)cc(F)c1)c1cc(F)ccc1O` | MIC: 6.3 µM

Item: `O=C(Nc1ccc(C(F)(F)F)cc1)c1cc(F)ccc1O` | MIC: 3.1 µM

Item: `O=C(Nc1ccccc1)c1cc(Cl)ccc1O` | MIC: 13 µM

Item: `O=C(Nc1ccc(Br)cc1C(F)(F)F)c1cc(Cl)ccc1O` | MIC: 6.3 µM

Item: `O=C(Nc1cc(C(F)(F)F)cc(C(F)(F)F)c1)c1cc(-n2cccc2)ccc1O` | MIC: 3.1 µM

Item: `O=C(Nc1cc(Cl)cc(Cl)c1)c1cc(Cl)ccc1O` | MIC: 1.6 µM

Item: `O=C(Nc1ccc(F)cc1F)c1cc(Cl)ccc1O` | MIC: 13 µM

Item: `O=C(Nc1ccc(Oc2ccccc2)cc1)c1cc(Cl)ccc1O` | MIC: 13 µM

Item: `O=C(Nc1ccc(OC(F)(F)F)cc1)c1cc(Cl)ccc1O` | MIC: 3.1 µM

Item: `O=C(Nc1cc(C(F)(F)F)cc(C(F)(F)F)c1)c1cccc(Cl)c1` | MIC: > 50 µM

Item: `O=C(Nc1ccc(F)cc1)c1cc(Cl)ccc1O` | MIC: 13 µM

Item: `O=C(Nc1cc(F)ccc1Cl)c1cc(Cl)ccc1O` | MIC: 3.1 µM
